- Tested on: Influenza B virus
- assayDetails: Antiviral activity against Influenza B virus 699[…] clinical isolate infected in MDCK cells incubated for 1 hr by MTT assay
- Type: functional, organism-based
recordedEndpoint: IC50
Don't forget the unit after the number, please.

*Q* Report IC50 for CCOC(=O)c1c(CSc2ccccc2)n(C)c2cc(Br)c(O)c(CN(C)C)c12.Cl please.
*A* 0.41 µM

----------
- Test system: Influenza A virus
- assayDetails: Antiviral activity against Influenza A virus A/Aichi/2/68(H3N2) infected in MDCK cells incubated for 1 hr by MTT assay
- Format: functional, organism-based
recordedEndpoint: IC50 (nM)
Numeric only. Scale: nM

*Q* Report IC50 for CCOC(=O)c1c(CSc2ccccc2)n(C)c2cc(Br)c(O)c(CN(C)C)c12.Cl please.
*A* 1180

----------
# maps each entry to its CC50
- assayDetails: Cytotoxicity against MDCK cells by CCK-8 assay
- Type: toxicity, cell-based, Canis lupus familiaris
- runConditions: dog
Where a SMILES comes first, the peptide text is derived from it. The star is where a group is joined. Acetyl(2-naphthyl) = O=C(Cc1ccc2ccccc2c1)*; Fmoc = O=C(OCC1c2ccccc2-c2ccccc21)*
Numeric only. Scale: µM

Answered cases to consult:
{"compound": "CC(C)CCC[C@@H](C)[C@H]1CC[C@H]2[C@@H]3CC=C4C[C@@H](OC(=O)CN[C@@H](CCCCN)C(=O)N[C@@H](CCCCN)C(=O)N[C@@H](Cc5c[nH]c6ccccc56)C(=O)N[C@@H](CCCCN)C(N)=O)CC[C@]4(C)[C@H]3CC[C@]12C", "CC50 / µM": 39.1}
{"compound": "NCCCC[C@H](NC(=O)[C@H](Cc1c[nH]c2ccccc12)NC(=O)[C@H](CCCCN)NC(=O)[C@H](CCCCN)NC(=O)Cc1ccc2ccccc2c1)C(=O)O ({Acetyl(2-naphthyl)}-KKWK-OH)", "CC50 / µM": 200}

Next item in the queue.
*Q* Report CC50 for NCCCC[C@H](NC(=O)[C@H](Cc1c[nH]c2ccccc12)NC(=O)[C@H](CCCCN)NC(=O)[C@H](CCCCN)NC(=O)OCC1c2ccccc2-c2ccccc21)C(=O)O (Fmoc-KKWK-OH) please.
*A* 200

----------
# maps each entry to its IC50
- Test system: Influenza A virus
- assayDetails: Antiviral activity against Influenza A virus (A/Puerto Rico/8/1934(H1N1)) infected in MDCK cells assessed as reduction in virus induced cytopathic effect pre-treated with virus followed by cell infection for 1 hr by MTT assay
- Type: functional, organism-based
Where a SMILES comes first, the peptide text is derived from it. The star is where a group is joined. Acetyl(2-naphthyl) = O=C(Cc1ccc2ccccc2c1)*; Fmoc = O=C(OCC1c2ccccc2-c2ccccc21)*

{"compound": "NCCCC[C@H](NC(=O)[C@H](Cc1c[nH]c2ccccc12)NC(=O)[C@H](CCCCN)NC(=O)[C@H](CCCCN)NC(=O)Cc1ccc2ccccc2c1)C(=O)O ({Acetyl(2-naphthyl)}-KKWK-OH)", "IC50": "4040 nM"}
{"compound": "NCCCC[C@H](NC(=O)[C@H](Cc1c[nH]c2ccccc12)NC(=O)[C@H](CCCCN)NC(=O)[C@H](CCCCN)NC(=O)OCC1c2ccccc2-c2ccccc21)C(=O)O (Fmoc-KKWK-OH)", "IC50": "4020 nM"}
{"compound": "CCOC(=O)c1c(CSc2ccccc2)n(C)c2cc(Br)c(O)c(CN(C)C)c12.Cl", "IC50": "360 nM"}

Next item in the queue.
*Q* Test system Influenza A virus; read-out IC50; what value for CC(C)CCC[C@@H](C)[C@H]1CC[C@H]2[C@@H]3CC=C4C[C@@H](OC(=O)CN[C@@H](CCCCN)C(=O)N[C@@H](CCCCN)C(=O)N[C@@H](Cc5c[nH]c6ccccc56)C(=O)N[C@@H](CCCCN)C(N)=O)CC[C@]4(C)[C@H]3CC[C@]12C ?
*A* 1610 nM
